Values from patent EP2065382A1

Listed below: pKi values for each entry.
system: humanen CGRP-Rezeptor (Homo sapiens, UniProt O60894+Q16602)
Construct: SK-N-MC-Zellen werden in "Dulbecco's modified Eagle Medium" kultiviert; endogenous in cells; host or cells: SK-N-MC cells (membrane homogenate)
Sequence (Q16602 23-461): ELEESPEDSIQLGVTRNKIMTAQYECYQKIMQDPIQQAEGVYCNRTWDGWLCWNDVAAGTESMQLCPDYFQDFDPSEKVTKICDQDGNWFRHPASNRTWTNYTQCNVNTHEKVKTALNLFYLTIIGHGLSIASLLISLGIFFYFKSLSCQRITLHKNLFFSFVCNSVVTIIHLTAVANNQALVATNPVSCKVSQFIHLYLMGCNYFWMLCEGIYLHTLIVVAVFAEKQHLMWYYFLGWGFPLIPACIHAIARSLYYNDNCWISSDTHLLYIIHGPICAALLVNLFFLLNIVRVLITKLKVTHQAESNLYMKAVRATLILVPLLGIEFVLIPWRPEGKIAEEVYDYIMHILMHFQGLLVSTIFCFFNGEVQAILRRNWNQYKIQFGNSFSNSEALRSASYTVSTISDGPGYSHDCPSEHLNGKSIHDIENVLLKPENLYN
Sequence (O60894 27-148): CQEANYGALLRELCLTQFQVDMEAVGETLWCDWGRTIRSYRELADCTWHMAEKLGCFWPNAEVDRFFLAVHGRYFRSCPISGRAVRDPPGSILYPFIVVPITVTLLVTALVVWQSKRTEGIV
assay-protocol: Binding studies with SK-N-MC cells expressing the human CGRP receptor (125I-CGRP displacement on membrane homogenate)
condition: 50 pM 125I-Iodotyrosyl-CGRP, 180 min at room temperature
pKi: −log10 of the molar value.
recorded-endpoint: pKi

- Cn1cc(C(=O)c2cc(N3CCC(n4c(=O)[nH]c5ccccc54)CC3)ncn2)c2ccccc21: 6.60
- O=C(c1cc(N2CCC(n3c(=O)[nH]c4ncccc43)CC2)ncn1)c1cn(CCCN2CCCCC2)c2ccccc12: 7.80
- O=C(c1cc(N2CCC(n3c(=O)[nH]c4ncccc43)CC2)ncn1)c1c[nH]c2ccccc12: 6.92

----------
system: humanen CGRP-Rezeptor (Homo sapiens, UniProt O60894+Q16602)
Construct: SK-N-MC-Zellen werden in "Dulbecco's modified Eagle Medium" kultiviert; endogenous in cells; host or cells: SK-N-MC cells (membrane homogenate)
assay-protocol: Binding studies with SK-N-MC cells expressing the human CGRP receptor (125I-CGRP displacement on membrane homogenate)
condition: 50 pM 125I-Iodotyrosyl-CGRP, 180 min at room temperature, read-out: Ki
pKi: −log10 of the molar value.
Listed below: pKi values for each entry.
recorded-endpoint: pKi

• Cc1ccc2c(C(=O)c3cc(N4CCC(n5c(=O)[nH]c6ncccc65)CC4)ncn3)cn(C)c2c1 = 7.60
• Cn1cc(C(=O)c2cc(N3CCC(n4c(=O)[nH]c5ncccc54)CC3)ncn2)c2ccccc21 = 8.30
